Values were extracted from patent US20050282743A1.

- EXPERIMENTAL SYSTEM: T1, GST-FLJ 10324 PDZ domain 1 [GST: P08515]
- T1 chain: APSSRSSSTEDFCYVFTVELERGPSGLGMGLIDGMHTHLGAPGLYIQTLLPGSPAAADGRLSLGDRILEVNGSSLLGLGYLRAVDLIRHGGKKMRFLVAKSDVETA
- ASSAY EXPLANATION: G' assay; also: key of the grades not given here
Each item that follows carries a reported Classification.
Give your result as the value with the unit written after it.

**Query** Param item = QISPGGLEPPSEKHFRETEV (modifications not checked) [TAX] ; retrieve measured Classification.
**Result** 1 A450 class

**Query** I have this binder here, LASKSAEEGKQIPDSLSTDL (modifications not checked) [DOCK2] , and I need its recorded Classification.
**Result** 1 A450 class

**Query** Consider the binder shown here: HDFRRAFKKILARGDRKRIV (modifications not checked) [alpha-2A Adrenergic receptor] What is its recorded Classification?
**Result** 1 A450 class

**Query** Recorded Classification for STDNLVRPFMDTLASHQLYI (modifications not checked) [presenilin-2] , please?
**Result** 5 A450 class

**Query** Which Classification reading was recorded for the binder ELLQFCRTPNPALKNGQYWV (modifications not checked) [CSPG4 (chondroitin sulfae proteoglycan 4, melanoma-associated)] ?
**Result** 5 A450 class

**Query** What does the data say about its Classification? Entry: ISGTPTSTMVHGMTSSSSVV (modifications not checked) [Clasp-2]
**Result** 1 A450 class

**Query** What value of Classification has been reported for the following binder? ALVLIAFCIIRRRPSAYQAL (modifications not checked) [CD68]
**Result** 1 A450 class
